Biological target: plurality of kinases (Table 5) (Homo sapiens)
Sequence (Q8IVH8 1-894): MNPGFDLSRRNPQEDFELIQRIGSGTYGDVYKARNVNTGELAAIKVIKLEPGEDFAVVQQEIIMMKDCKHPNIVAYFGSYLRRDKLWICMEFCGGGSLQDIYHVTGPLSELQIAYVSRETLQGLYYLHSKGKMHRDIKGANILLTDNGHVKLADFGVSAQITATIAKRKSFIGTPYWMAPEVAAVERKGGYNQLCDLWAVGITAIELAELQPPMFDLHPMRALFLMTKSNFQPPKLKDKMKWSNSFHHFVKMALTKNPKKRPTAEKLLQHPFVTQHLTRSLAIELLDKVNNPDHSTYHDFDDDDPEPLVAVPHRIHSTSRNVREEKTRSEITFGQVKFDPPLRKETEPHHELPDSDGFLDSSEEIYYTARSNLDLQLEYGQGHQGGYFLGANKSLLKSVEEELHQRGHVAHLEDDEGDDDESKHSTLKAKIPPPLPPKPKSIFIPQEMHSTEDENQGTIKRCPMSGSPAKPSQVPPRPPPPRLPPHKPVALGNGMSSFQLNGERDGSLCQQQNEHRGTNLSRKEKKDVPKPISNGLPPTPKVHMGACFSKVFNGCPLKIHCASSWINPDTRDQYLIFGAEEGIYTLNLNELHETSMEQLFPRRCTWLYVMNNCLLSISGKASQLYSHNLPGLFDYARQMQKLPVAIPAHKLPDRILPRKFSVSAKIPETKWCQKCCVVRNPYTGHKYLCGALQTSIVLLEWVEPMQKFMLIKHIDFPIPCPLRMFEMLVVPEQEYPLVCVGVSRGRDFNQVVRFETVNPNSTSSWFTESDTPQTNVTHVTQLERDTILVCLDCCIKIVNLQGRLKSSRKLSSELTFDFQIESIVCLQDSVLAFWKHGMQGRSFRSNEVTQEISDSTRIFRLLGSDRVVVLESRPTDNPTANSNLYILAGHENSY
Assay: Further analysis of a plurality of inhibitors and a plurality of kinases on microarray (Example IX, Table 5);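 on Inhibition level, MAP4K3: level 0 none or unclear then 1 little or marginal then 2 substantial inhibition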
Assay type: biochemical
Conditions: plate C5; inhibitor 100 uM
value.type: Inhibition level, MAP4K3
Provide a numeric answer; units are not to be included.

Past entries and their recorded results:
smiles	experimental.system	Inhibition level, MAP4K3
Cn1cc(C2=C(c3cn(CCCSC(=N)N)c4ccccc34)C(=O)NC2=O)c2ccccc21	plurality of kinases (Table 5) (Homo sapiens)	2
CC(=O)c1c(O)c(C)c(O)c(Cc2c(O)c3c(c(C(=O)/C=C/c4ccccc4)c2O)OC(C)(C)C=C3)c1O	plurality of kinases (Table 5) (Homo sapiens)	1
N#C/C(=C/c1ccc(O)c(O)c1)C(=O)NCc1ccccc1	plurality of kinases (Table 5) (Homo sapiens)	1
O=S(=O)(NCCNC/C=C/c1ccc(Br)cc1)c1cccc2cnccc12	plurality of kinases (Table 5) (Homo sapiens)	1
COc1cc2ncnc(Nc3cccc(Cl)c3)c2cc1OC	plurality of kinases (Table 5) (Homo sapiens)	2

What is its Inhibition level, MAP4K3 for plurality of kinases (Table 5) (Homo sapiens)? Entry: "O=c1c(O)c(-c2ccc(O)c(O)c2)oc2cc(O)cc(O)c12"
1

Now consider "CC(C)(C)n1nc(-c2ccc(Cl)cc2)c2c(N)ncnc21" and answer again.
2

Same read-out for "O=c1c(-c2ccc(O)cc2)coc2cc(O)cc(O)c12" ?
2

---

biological target: plurality of kinases (Table 5) (Homo sapiens); assay: Further analysis of a plurality of inhibitors and a plurality of kinases on microarray (Example IX, Table 5); type: biochemical; conditions: plate D4; inhibitor 100 uM
value.type: Inhibition level, PAK3
Answer with the value's number alone.

smiles	experimental.system	measured.value
O=c1c(O)c(-c2ccc(O)c(O)c2)oc2cc(O)cc(O)c12	plurality of kinases (Table 5) (Homo sapiens)	2
O=c1c(-c2ccc(O)cc2)coc2cc(O)cc(O)c12	plurality of kinases (Table 5) (Homo sapiens)	2

Now take the following molecule into account.
Record "Cn1cc(C2=C(c3cn(CCCSC(=N)N)c4ccccc34)C(=O)NC2=O)c2ccccc21" : what is its Inhibition level, PAK3 with plurality of kinases (Table 5) (Homo sapiens)?
2

---

molecular target: plurality of kinases (Table 5) (Homo sapiens); assay: Further analysis of a plurality of inhibitors and a plurality of kinases on microarray (Example IX, Table 5); format: biochemical; settings: plate B3; inhibitor 100 uM
value.type: Inhibition level, PRKCH
Reply briefly: the number, and no unit.

smiles	Inhibition level, PRKCH
CC(=O)c1c(O)c(C)c(O)c(Cc2c(O)c3c(c(C(=O)/C=C/c4ccccc4)c2O)OC(C)(C)C=C3)c1O	2
COc1cc2ncnc(Nc3cccc(Cl)c3)c2cc1OC	0
CC(C)(C)n1nc(-c2ccc(Cl)cc2)c2c(N)ncnc21	2
O=c1c(O)c(-c2ccc(O)c(O)c2)oc2cc(O)cc(O)c12	0
Cn1cc(C2=C(c3cn(CCCSC(=N)N)c4ccccc34)C(=O)NC2=O)c2ccccc21	2

Query the reported Inhibition level, PRKCH for plurality of kinases (Table 5) (Homo sapiens); item: "O=S(=O)(NCCNC/C=C/c1ccc(Br)cc1)c1cccc2cnccc12"
2

Now the compound "O=c1c(-c2ccc(O)cc2)coc2cc(O)cc(O)c12"
2

Follow-up item: "N#C/C(=C/c1ccc(O)c(O)c1)C(=O)NCc1ccccc1"
2

---

biological target: plurality of kinases (Table 5) (Homo sapiens, UniProt Q13043); test: Further analysis of a plurality of inhibitors and a plurality of kinases on microarray (Example IX, Table 5); format: biochemical; settings: plate D6; inhibitor 100 uM;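 on Inhibition level, STK4: level 0 no or unclear inhibition to Level 2 substantial inhibition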
Sequence (Q13043 whole entry): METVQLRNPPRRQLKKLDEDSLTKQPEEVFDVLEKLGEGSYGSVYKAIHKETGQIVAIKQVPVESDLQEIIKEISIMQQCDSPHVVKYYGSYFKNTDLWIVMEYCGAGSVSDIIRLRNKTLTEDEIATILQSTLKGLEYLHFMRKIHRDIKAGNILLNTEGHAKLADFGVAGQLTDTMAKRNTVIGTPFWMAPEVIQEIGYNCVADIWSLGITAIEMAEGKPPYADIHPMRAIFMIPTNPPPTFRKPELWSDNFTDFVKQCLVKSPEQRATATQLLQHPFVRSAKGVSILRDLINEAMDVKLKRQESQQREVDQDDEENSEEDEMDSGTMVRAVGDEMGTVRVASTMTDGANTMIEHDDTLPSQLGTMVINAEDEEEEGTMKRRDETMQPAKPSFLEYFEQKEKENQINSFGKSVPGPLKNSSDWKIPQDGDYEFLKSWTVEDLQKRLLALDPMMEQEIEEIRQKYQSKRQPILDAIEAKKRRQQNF
value.type: Inhibition level, STK4

Consider the reported Inhibition level, STK4 for these compounds:
compound	experimental.system	value.type	measured.value
O=c1c(-c2ccc(O)cc2)coc2cc(O)cc(O)c12 [Genistein]	plurality of kinases (Table 5) (Homo sapiens, UniProt Q13043)	Inhibition level, STK4	0
CC(C)(C)n1nc(-c2ccc(Cl)cc2)c2c(N)ncnc21 [PP2]	plurality of kinases (Table 5) (Homo sapiens, UniProt Q13043)	Inhibition level, STK4	2
COc1cc2ncnc(Nc3cccc(Cl)c3)c2cc1OC [AG 1478]	plurality of kinases (Table 5) (Homo sapiens, UniProt Q13043)	Inhibition level, STK4	1
O=c1c(O)c(-c2ccc(O)c(O)c2)oc2cc(O)cc(O)c12 [Quercetin]	plurality of kinases (Table 5) (Homo sapiens, UniProt Q13043)	Inhibition level, STK4	0
CC(=O)c1c(O)c(C)c(O)c(Cc2c(O)c3c(c(C(=O)/C=C/c4ccccc4)c2O)OC(C)(C)C=C3)c1O [Rottlerin (Mallotoxin)]	plurality of kinases (Table 5) (Homo sapiens, UniProt Q13043)	Inhibition level, STK4	0
O=S(=O)(NCCNC/C=C/c1ccc(Br)cc1)c1cccc2cnccc12 [H-89]	plurality of kinases (Table 5) (Homo sapiens, UniProt Q13043)	Inhibition level, STK4	2
N#C/C(=C/c1ccc(O)c(O)c1)C(=O)NCc1ccccc1 [AG 490]	plurality of kinases (Table 5) (Homo sapiens, UniProt Q13043)	Inhibition level, STK4	0

As a next step, examine the compound that follows.
Identify the measured Inhibition level, STK4 of Cn1cc(C2=C(c3cn(CCCSC(=N)N)c4ccccc34)C(=O)NC2=O)c2ccccc21 [Ro-31-8220] for plurality of kinases (Table 5) (Homo sapiens, UniProt Q13043).
2

---

Each entry below carries its recorded Inhibition level, MERTK.
biological target: plurality of kinases (Table 5) (Homo sapiens, UniProt Q12866); assay: Further analysis of a plurality of inhibitors and a plurality of kinases on microarray (Example IX, Table 5); assay type: biochemical; details: plate B11; inhibitor 100 uM
Sequence (Q12866 21-999): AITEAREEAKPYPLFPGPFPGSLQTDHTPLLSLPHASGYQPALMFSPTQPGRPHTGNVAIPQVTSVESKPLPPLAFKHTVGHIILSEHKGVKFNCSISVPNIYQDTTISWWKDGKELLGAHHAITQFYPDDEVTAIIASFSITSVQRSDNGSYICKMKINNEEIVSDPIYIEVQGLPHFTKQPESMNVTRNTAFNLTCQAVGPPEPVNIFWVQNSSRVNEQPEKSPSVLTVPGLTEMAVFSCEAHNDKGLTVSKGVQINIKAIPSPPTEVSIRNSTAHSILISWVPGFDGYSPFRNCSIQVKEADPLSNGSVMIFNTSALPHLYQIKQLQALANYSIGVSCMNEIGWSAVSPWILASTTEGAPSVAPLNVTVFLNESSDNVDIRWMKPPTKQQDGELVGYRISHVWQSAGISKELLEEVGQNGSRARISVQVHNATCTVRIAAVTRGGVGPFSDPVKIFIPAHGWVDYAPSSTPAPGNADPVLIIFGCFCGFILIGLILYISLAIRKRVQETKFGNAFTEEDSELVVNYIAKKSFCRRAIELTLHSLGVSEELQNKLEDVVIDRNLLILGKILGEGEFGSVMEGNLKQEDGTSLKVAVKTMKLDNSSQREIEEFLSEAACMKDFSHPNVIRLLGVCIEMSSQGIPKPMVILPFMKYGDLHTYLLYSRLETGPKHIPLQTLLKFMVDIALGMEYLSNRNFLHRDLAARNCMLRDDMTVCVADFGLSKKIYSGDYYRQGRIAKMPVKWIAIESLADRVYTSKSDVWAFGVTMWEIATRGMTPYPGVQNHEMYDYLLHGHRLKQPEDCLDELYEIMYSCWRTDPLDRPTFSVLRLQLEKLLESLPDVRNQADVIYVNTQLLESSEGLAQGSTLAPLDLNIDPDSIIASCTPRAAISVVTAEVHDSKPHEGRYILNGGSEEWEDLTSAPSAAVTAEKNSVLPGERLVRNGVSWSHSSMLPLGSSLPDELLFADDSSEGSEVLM
Note: the reply should be a number with no unit written.

smiles	measured.value
O=c1c(O)c(-c2ccc(O)c(O)c2)oc2cc(O)cc(O)c12	1
N#C/C(=C/c1ccc(O)c(O)c1)C(=O)NCc1ccccc1	2

Now consider a different compound.
May I ask what Inhibition level, MERTK has been recorded for "CC(=O)c1c(O)c(C)c(O)c(Cc2c(O)c3c(c(C(=O)/C=C/c4ccccc4)c2O)OC(C)(C)C=C3)c1O" ?
2

---

As shown below, each of these compounds has a reported Inhibition level, FGFR1 value.
target: plurality of kinases (Table 5) (Homo sapiens, UniProt P11362); assay: Further analysis of a plurality of inhibitors and a plurality of kinases on microarray (Example IX, Table 5); format: biochemical; settings: plate D12; inhibitor 100 uM;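 further: inhibition of each kinase by the inhibitors is given as a qualitative level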
Sequence (P11362 22-822): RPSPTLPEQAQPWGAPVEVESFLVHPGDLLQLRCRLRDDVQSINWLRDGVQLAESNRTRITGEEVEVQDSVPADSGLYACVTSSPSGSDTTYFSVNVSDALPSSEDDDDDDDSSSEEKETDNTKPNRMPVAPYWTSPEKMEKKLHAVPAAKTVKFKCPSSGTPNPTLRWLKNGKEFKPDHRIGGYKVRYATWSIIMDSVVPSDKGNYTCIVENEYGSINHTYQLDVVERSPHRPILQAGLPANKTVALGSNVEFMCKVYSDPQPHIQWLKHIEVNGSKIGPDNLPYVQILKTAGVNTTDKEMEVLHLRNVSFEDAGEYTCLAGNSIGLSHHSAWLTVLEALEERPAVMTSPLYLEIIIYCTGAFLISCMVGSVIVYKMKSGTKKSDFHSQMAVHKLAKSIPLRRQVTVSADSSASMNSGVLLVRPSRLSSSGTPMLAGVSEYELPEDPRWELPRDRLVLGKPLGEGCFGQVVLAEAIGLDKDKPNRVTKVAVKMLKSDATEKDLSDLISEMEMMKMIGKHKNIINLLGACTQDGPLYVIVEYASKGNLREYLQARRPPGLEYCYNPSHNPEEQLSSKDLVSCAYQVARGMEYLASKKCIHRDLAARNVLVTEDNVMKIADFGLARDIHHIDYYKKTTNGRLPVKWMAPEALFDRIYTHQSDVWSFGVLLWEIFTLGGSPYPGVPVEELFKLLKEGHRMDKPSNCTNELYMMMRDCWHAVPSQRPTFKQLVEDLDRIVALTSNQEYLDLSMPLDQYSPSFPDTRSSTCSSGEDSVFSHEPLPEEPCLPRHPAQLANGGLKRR
Lab note: record the figure alone, no unit after it.

In the examples that follow, each entry is paired with its recorded Inhibition level, FGFR1.
compound	Inhibition level, FGFR1
CC(=O)c1c(O)c(C)c(O)c(Cc2c(O)c3c(c(C(=O)/C=C/c4ccccc4)c2O)OC(C)(C)C=C3)c1O [Rottlerin (Mallotoxin)]	1
O=c1c(-c2ccc(O)cc2)coc2cc(O)cc(O)c12 [Genistein]	0

Fill in the blank: the reported Inhibition level, FGFR1 of O=S(=O)(NCCNC/C=C/c1ccc(Br)cc1)c1cccc2cnccc12 [H-89] is ____.
1

Ok, now CC(C)(C)n1nc(-c2ccc(Cl)cc2)c2c(N)ncnc21 [PP2]
2

Then COc1cc2ncnc(Nc3cccc(Cl)c3)c2cc1OC [AG 1478] ?
1

Similarly, N#C/C(=C/c1ccc(O)c(O)c1)C(=O)NCc1ccccc1 [AG 490] ?
0

Subsequent entry: Cn1cc(C2=C(c3cn(CCCSC(=N)N)c4ccccc34)C(=O)NC2=O)c2ccccc21 [Ro-31-8220]
2
